# System: Vibrio cholerae
# assay.info: growth AUC normalised to DMSO control (fraction of control); higher = less growth inhibition, active = hit call of the paper
# settings: 20 µM
Counter-ions that a name gives are not always drawn.
growth AUC normalised to DMSO control values for the molecules below.
Answer using only a numeral; do not append any unit.

These recorded examples may help you get a feel for the data.
- molecule: "CC[C@@H](C(N)=O)N1CCCC1=O"
  growth AUC normalised to DMSO control: 1.05
- molecule: "CC(C)c1c(CN(C)C(C)Cc2ccccc2)n(C)n(-c2ccccc2)c1=O (centres undefined)"
  growth AUC normalised to DMSO control: 0.965

// query Check the records and state growth AUC normalised to DMSO control for C[C@@H]1CN([C@H]2CC[C@](C#N)(c3ccc(F)cc3)CC2)CC[C@]1(C(=O)O)c1ccccc1 [Levocabastine hydrochloride]
// result 0.239

// query Check the records and state growth AUC normalised to DMSO control for C[C@]12CCC(=O)C(O)=C1CC[C@@H]1[C@@H]2CC[C@]2(C)C(=O)CC[C@@H]12
// result 1.01

* * *

# Test system: S. enterica typhimurium WT
# assay.info: growth AUC normalised to DMSO control (median) (fraction of control); higher = less growth inhibition, active = hit call of the paper
# settings: 20 µM
Where a name gives a salt, the structure may show the parent alone.
growth AUC normalised to DMSO control values for the compounds below.
Answer using only a numeral; do not append any unit.

These recorded examples may help you get a feel for the data.
- compound: "C[C@]12C/C(=C/O)C(=O)C[C@@H]1CC[C@@H]1[C@@H]2CC[C@@]2(C)[C@H]1CC[C@]2(C)O [Oxymetholone]"
  target.under.test: "S. enterica typhimurium WT"
  growth AUC normalised to DMSO control: 1.01
- compound: "CN(C)C(=O)Oc1ccc[n+](C)c1 [Pyridostigmine iodide]"
  target.under.test: "S. enterica typhimurium WT"
  growth AUC normalised to DMSO control: 1.01
- compound: "CC(N)C(O)c1ccccc1 (centres undefined) [Phenylpropanolamine hydrochloride]"
  target.under.test: "S. enterica typhimurium WT"
  growth AUC normalised to DMSO control: 1.01

// query Check the records and state growth AUC normalised to DMSO control for C[C@]12CC[C@H](O)C[C@@H]1CC[C@@H]1[C@@H]2CC[C@]2(C)C(=O)CC[C@@H]12 [Epiandrosterone]
// result 1

* * *

# Tested on: P. vulgatus RND KO
# assay.info: growth AUC normalised to DMSO control (median) (fraction of control); higher = less growth inhibition, active = hit call of the paper
# settings: 20 µM
Structures can show the parent of a compound that is named as a salt.
Returns 1 if the recorded growth AUC normalised to DMSO control is greater than or equal to 1, and -1 otherwise.

// query Could you please find out whether CC(Cc1ccc(O)cc1)NCC(O)c1cc(O)cc(O)c1 (centres undefined) [Fenoterol hydrobromide] has growth AUC normalised to DMSO control that meets 1 or exceeds it?
// result 1

// query Could you please find out whether CC(=O)OCC(=O)[C@H]1CC[C@H]2[C@@H]3CC[C@H]4C[C@H](O)CC[C@]4(C)[C@H]3C(=O)C[C@]12C [Alfadolone acetate] has growth AUC normalised to DMSO control that meets 1 or exceeds it?
// result 1

// query Could you please find out whether CCCC(C)C1(CC)C(=O)NC(=O)NC1=O (centres undefined) has growth AUC normalised to DMSO control that meets 1 or exceeds it?
// result 1

// query Could you please find out whether CC(N)C(O)c1ccccc1 (centres undefined) [Phenylpropanolamine hydrochloride] has growth AUC normalised to DMSO control that meets 1 or exceeds it?
// result 1

// query Could you please find out whether Oc1ccc(Cl)cc1Cc1cc(Cl)ccc1O has growth AUC normalised to DMSO control that meets 1 or exceeds it?
// result -1
